Test system: EKVX
assayExplanation: NCI tumour cell line growth inhibition, 48 h
Activity calls are given as the source filed them. Cut-off read from the data, not from the text of the source: active = GI50 up to about 1.1 µM and inactive = higher.
I'd be grateful if you could share measured GI50 for these entries.

Input line: Need GI50 of COc1cc(NCCC(=O)O)c2ncccc2c1 , thanks.
Output line: > 100 µM (inactive)

Input line: Need GI50 of O=CCOCc1cc2c(cc1Br)OCO2 , thanks.
Output line: > 100 µM (inactive)

Input line: Need GI50 of CCOc1cc2c(cc1O)CC[C@@H]1[C@@H]2CC[C@]2(C)C(N)CC[C@@H]12 (some centres undefined) , thanks.
Output line: 4.27 µM (inactive)

Input line: Need GI50 of Cc1nc2n(c1/C=C1/C(=O)Nc3cccc(Cl)c31)CCS2 , thanks.
Output line: 31.8 µM (inactive)

Input line: Need GI50 of O=[PH](O)c1ccccn1 , thanks.
Output line: > 100 µM (inactive)

Input line: Need GI50 of Cc1cc(C)c2c(c1)CC1(Cc3c(ccc(C)c3C)C1=O)C2=O (centres undefined) , thanks.
Output line: > 100 µM (inactive)

Input line: Need GI50 of CC1=NN2C(=N)/C(=C/c3ccc(F)cc3)C(=O)N=C2S1 , thanks.
Output line: > 100 µM (inactive)

Input line: Need GI50 of C1CN2N3CCCC23C1 (centres undefined) , thanks.
Output line: > 100 µM (inactive)

Input line: Need GI50 of C=C1CC(C)(COc2ccc3c(C)c(C)c(=O)oc3c2C)OC1=O (centres undefined) , thanks.
Output line: 5.52 µM (inactive)

====

System: MOLT-4
assayExplanation: NCI tumour cell line growth inhibition, 48 h
Calls of active or inactive are those of the source. Cut-off read from the data, not from the text of the source: active = GI50 up to about 1.1 µM and inactive = higher.
Parameter call: string, one of active, inactive

Input line: Could you please tell me the result logged for CC1(c2nc3ccccc3[nH]2)CCC(C#N)C(C)(C)O1 (stereo unspecified) in this assay?
Output line: inactive

Input line: Could you please tell me the result logged for COc1ccc(OC)c(/C=C/NC=O)c1 in this assay?
Output line: inactive

Input line: Could you please tell me the result logged for CC(C)Oc1cccc(N2C(n3ccnc3)=Nc3ccncc3S2(=O)=O)c1 in this assay?
Output line: inactive

Input line: Could you please tell me the result logged for CC1=NN2C(=N)/C(=C/c3ccc(F)cc3)C(=O)N=C2S1 in this assay?
Output line: inactive

Input line: Could you please tell me the result logged for C=C1COC(/C=C(\C)CC/C=C(\C)CCl)C1 (stereo unspecified) in this assay?
Output line: inactive

Input line: Could you please tell me the result logged for CNc1nc(C(N)=O)c(N)s1 in this assay?
Output line: inactive

Input line: Could you please tell me the result logged for CCOC(=O)C(NC(=O)NCc1ccc(F)cc1)C(F)(F)F (stereo unspecified) in this assay?
Output line: inactive

Input line: Could you please tell me the result logged for O=C1N(C2CCCCC2)CC12CCCCC2 in this assay?
Output line: inactive

Input line: Could you please tell me the result logged for CCOC(=O)C1S/C(=N\c2ccccc2)N=C1C (stereo unspecified) in this assay?
Output line: inactive

Input line: Could you please tell me the result logged for Cc1cc(OP2(=O)NCc3ccncc3O2)ccc1Cl (stereo unspecified) in this assay?
Output line: inactive

Input line: Could you please tell me the result logged for O=CNCNCCO in this assay?
Output line: inactive

Input line: Could you please tell me the result logged for C/C(=N\NS(=O)(=O)c1ccc(C)cc1)c1ccc[n+]([O-])n1 in this assay?
Output line: inactive

Input line: Could you please tell me the result logged for O=C1N=NC(=O)N1c1cc(C(F)(F)F)cc(C(F)(F)F)c1 in this assay?
Output line: inactive

Input line: Could you please tell me the result logged for C=Cc1cnc([N+](=O)[O-])n1C in this assay?
Output line: inactive

Input line: Could you please tell me the result logged for COC[n+]1cc2cc(OC)c(OC)cc2c2ccc3cc(OC)c(OC)cc3c21 in this assay?
Output line: inactive

Input line: Could you please tell me the result logged for CCCCc1c2cnccc2c(CCCC)c2c1[nH]c1ccccc12 in this assay?
Output line: inactive

Input line: Could you please tell me the result logged for O=S(=O)(O)c1ccc(O)c(/N=N/c2c(O)ccc3ccccc23)c1 in this assay?
Output line: inactive

Input line: Could you please tell me the result logged for COc1cc(NCCC(=O)O)c2ncccc2c1 in this assay?
Output line: inactive

Input line: Could you please tell me the result logged for Cc1cccc(C)c1NC(=S)NC=C1C(=O)c2ccccc2C1=O in this assay?
Output line: active

Input line: Could you please tell me the result logged for c1ccc2c(c1)nnn2CNc1ccc(N2CCOCC2)cc1 in this assay?
Output line: inactive

Input line: Could you please tell me the result logged for Cc1cc(-c2nc3ccccc3s2)ccc1NC(=O)[C@@H](N)CCCCN in this assay?
Output line: inactive

Input line: Could you please tell me the result logged for CC1=NN(c2cccc(Cl)c2)C2(C1)C(Cl)C(=O)N2c1nc2ccccc2s1 (stereo unspecified) in this assay?
Output line: inactive

Input line: Could you please tell me the result logged for O/N=C\C(=N/O)Nc1ccc(Cc2ccc(NC(/C=N\O)=N/O)cc2)cc1 in this assay?
Output line: inactive

Input line: Could you please tell me the result logged for O=C1[C@@H]2C[C@@H](O)CN2C(=O)c2ccccc2N1CCCO in this assay?
Output line: inactive

Input line: Could you please tell me the result logged for CS(=O)(=O)c1n[nH]c2nc(O)nc(O)c12 in this assay?
Output line: inactive

Input line: Could you please tell me the result logged for COc1ccc(-c2csc3c2[N+]2(C)C=CC=C2C3N2CCCC2)cc1 (stereo unspecified) in this assay?
Output line: inactive

Input line: Could you please tell me the result logged for COc1ccc(-c2c(C#N)c(O)n(C3OC(CO)C(O)C(O)C3O)c(=S)c2C#N)cc1 (stereo unspecified) in this assay?
Output line: inactive

Input line: Could you please tell me the result logged for CCOC(=O)N/N=C(/N)c1cccc(Br)c1 in this assay?
Output line: inactive

Input line: Could you please tell me the result logged for COc1cc2c(cc1O)CC1c3c(cc(O)c(OC)c3-2)CCN1C (stereo unspecified) in this assay?
Output line: inactive

Input line: Could you please tell me the result logged for CC(C(=O)NCCNC(=O)CCC(=O)N(C)O)C(=O)NCCNC(=O)CCC(=O)N(C)O in this assay?
Output line: inactive

Input line: Could you please tell me the result logged for CCN(CCO)C(=O)C1(c2ccccc2)CCCCC1 in this assay?
Output line: inactive

Input line: Could you please tell me the result logged for CC1=C(C)C2(C#N)C(=O)N3C(=NC(c4ccco4)NC3c3ccco3)C2(C#N)C(c2ccco2)N1 (stereo unspecified) in this assay?
Output line: inactive

Input line: Could you please tell me the result logged for COc1ccc2c(c1)OCCC1=C2SCC2(C)CCN=C12 (stereo unspecified) in this assay?
Output line: inactive

Input line: Could you please tell me the result logged for CC(C)=CCC[C@@H](C)C1=C(Nc2ccccc2F)C(=O)C(C)=C(O)C1=O in this assay?
Output line: inactive

Input line: Could you please tell me the result logged for CN(C)CCNc1ccc2nnn3c4ccccc4c(=O)c1c23 in this assay?
Output line: inactive

Input line: Could you please tell me the result logged for O=Cc1ccc(-c2cccs2)s1 in this assay?
Output line: inactive

Input line: Could you please tell me the result logged for NC(Cc1ccnnc1)C(=O)O (stereo unspecified) in this assay?
Output line: inactive

Input line: Could you please tell me the result logged for C#CCN(Cc1ccc2nc(-c3ccccc3)c(Cl)nc2c1)c1cc(OC)c(OC)c(OC)c1 in this assay?
Output line: inactive

Input line: Could you please tell me the result logged for C/C(NC(=O)c1ccccc1)=C(/C(=O)c1ccccc1)[C@@H]1OC(C)(C)O[C@@H]1[C@H]1COC(C)(C)O1 in this assay?
Output line: inactive

Input line: Could you please tell me the result logged for Cc1ccc(NC(=O)/C(=N\NC(N)=O)c2c(O)c3ccccc3[nH]c2=O)cc1 in this assay?
Output line: inactive

Input line: Could you please tell me the result logged for O=C1C(Cl)=C(N2CCSCC2)C(=O)c2c(O)ccc(O)c21 in this assay?
Output line: active

Input line: Could you please tell me the result logged for O=c1[nH]nc(-c2ccccc2)n1/N=C/c1ccccc1Cl in this assay?
Output line: inactive

Input line: Could you please tell me the result logged for CCCCCCCCCCCC(=O)OCC(C[As](=O)(O)O)OC(=O)CCCCCCCCCCC (stereo unspecified) in this assay?
Output line: inactive

Input line: Could you please tell me the result logged for CCOC(=O)C(NC(=O)N(C1=NCC(C)S1)C1CCCCC1)(OC)C(F)(F)F (stereo unspecified) in this assay?
Output line: inactive

Input line: Could you please tell me the result logged for C(=C/c1nc2ccccc2o1)/c1ccc2c(c1)OCO2 in this assay?
Output line: inactive

Input line: Could you please tell me the result logged for Cc1ccc(S(=O)(=O)N/N=C2\C=C[C@]3(CC2)C(=O)N(C)c2ccccc23)cc1 in this assay?
Output line: inactive

From: ChEMBL document CHEMBL1201862
